The origin of these recorded values is ChEMBL document CHEMBL1135876.

Target: Melanocortin receptor 4 (Homo sapiens, UniProt P32245)
Sequence (P32245 whole entry): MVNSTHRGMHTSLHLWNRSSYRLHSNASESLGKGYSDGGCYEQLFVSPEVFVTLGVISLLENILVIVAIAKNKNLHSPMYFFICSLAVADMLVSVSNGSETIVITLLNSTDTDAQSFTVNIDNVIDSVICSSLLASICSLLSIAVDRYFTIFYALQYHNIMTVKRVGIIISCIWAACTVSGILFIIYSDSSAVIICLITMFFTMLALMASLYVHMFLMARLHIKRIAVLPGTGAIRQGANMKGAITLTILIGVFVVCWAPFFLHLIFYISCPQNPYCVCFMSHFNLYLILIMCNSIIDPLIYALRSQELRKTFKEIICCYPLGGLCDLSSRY
Assay: Binding affinity in competition with [125I]NDP-MSH on recombinant melanocortin 4 receptor
pKi: −log10 of the molar value.
Known pKi of a selection of compounds

- compound: "N=C(N)NCCC[C@H](NCC1CCc2ccccc2C1)C(N)=O (stereo partly specified)"
  limit_operator: "="
  pKi: 3.87
- compound: "N=C(N)NCCCNC(=O)[C@H](CCCN=C(N)N)NCc1ccc2ccccc2c1"
  limit_operator: "="
  pKi: 4.52
- compound: "COc1ccc(CNC(CCCN=C(N)N)C(=O)O)cc1OC (stereo unspecified)"
  limit_operator: "<"
  pKi: 6.00
- compound: "N=C(N)NCCC[C@@H](NCc1c[nH]c2ccccc12)C(N)=O"
  limit_operator: "<"
  pKi: 6.00
- compound: "COc1ccc(CN[C@@H](CCCN=C(N)N)C(N)=O)cc1OC"
  limit_operator: "<"
  pKi: 6.00
- compound: "N=C(N)NCCC[C@H](NCc1ccc2ccccc2c1)C(N)=O"
  limit_operator: "<"
  pKi: 6.00
- compound: "NC(N)=NCCCNC(=O)[C@@H]1C[C@H](O)CN1Cc1ccc2ccccc2c1"
  limit_operator: "="
  pKi: 3.55
- compound: "COc1ccc(CN[C@H](CCCNC(=N)N)C(=O)O)cc1OC"
  limit_operator: "<"
  pKi: 6.00
- compound: "N=C(N)NCCC[C@@H](NCc1ccc2ccccc2c1)C(=O)N[C@@H](Cc1c[nH]c2ccccc12)C(N)=O"
  limit_operator: "="
  pKi: 4.25
- compound: "N=C(N)NCCC[C@H](NCc1ccc2ccccc2c1)C(=O)N[C@@H](Cc1c[nH]c2ccccc12)C(N)=O"
  limit_operator: "="
  pKi: 3.98
- compound: "O=C(NCc1ccc2ccccc2c1)[C@H]1CCCN1CCc1c[nH]c2ccccc12"
  limit_operator: "="
  pKi: 3.78
- compound: "N=C(N)NCCC[C@H](NCc1ccc2ccccc2c1)C(=O)Nc1ccc2ccccc2c1"
  limit_operator: "="
  pKi: 4.85
- compound: "NC(=O)[C@H](Cc1ccc2ccccc2c1)NCc1c[nH]c2ccccc12"
  limit_operator: "<"
  pKi: 3.00
- compound: "N=C(N)NCCC[C@H](NCc1c[nH]c2ccccc12)C(N)=O"
  limit_operator: "<"
  pKi: 6.00
- compound: "NC(=O)[C@@H](Cc1c[nH]c2ccccc12)NCc1ccc2ccccc2c1"
  limit_operator: "="
  pKi: 4.19
- compound: "N=C(N)NCCC[C@@H](NCc1ccc2ccccc2c1)C(N)=O"
  limit_operator: "<"
  pKi: 3.00
- compound: "COc1ccc(CN[C@@H](CCCNC(=N)N)C(N)=O)c(Cl)c1OC"
  limit_operator: "<"
  pKi: 6.00
- compound: "NC(=O)[C@H](Cc1c[nH]c2ccccc12)NCc1ccc2ccccc2c1"
  limit_operator: "="
  pKi: 3.86
- compound: "C=CCOC(=O)[C@H](CCCNC(=N)N)NCc1ccc2ccccc2c1"
  limit_operator: "="
  pKi: 4.82
- compound: "NC(N)=NCCCC(NCc1c[nH]c2ccccc12)C(=O)O (stereo unspecified)"
  limit_operator: "<"
  pKi: 6.00
- compound: "N=C(N)NCCC[C@H](NCc1c[nH]c2ccccc12)C(=O)N[C@@H](Cc1c[nH]c2ccccc12)C(N)=O"
  limit_operator: "="
  pKi: 3.69
- compound: "COc1ccc(CN[C@H](CCCNC(=N)N)C(=O)O)c(Cl)c1OC"
  limit_operator: "<"
  pKi: 6.00
- compound: "NC(N)=NCCC[C@@H](NCc1c[nH]c2ccccc12)C(=O)O"
  limit_operator: "<"
  pKi: 6.00
- compound: "O=C(NCCc1c[nH]cn1)[C@@H]1C[C@H](O)CN1Cc1ccc2ccccc2c1"
  limit_operator: "="
  pKi: 3.82
- compound: "N=C(N)NCCC[C@H](NCc1ccc2ccccc2c1)C(=O)Nc1cccc2ccccc12"
  limit_operator: "="
  pKi: 5.17
- compound: "NC(=O)[C@@H](Cc1ccc2ccccc2c1)NCc1c[nH]c2ccccc12"
  limit_operator: "<"
  pKi: 3.00

###

Target: Melanocyte-stimulating hormone receptor (Homo sapiens)
Experiment: Binding affinity in competition with [125I]NDP-MSH on recombinant melanocortin 1 receptor

- compound: "COc1ccc(CN[C@@H](CCCN=C(N)N)C(N)=O)cc1OC"
  Ki: "> 1 µM"
- compound: "COc1ccc(CNC(CCCN=C(N)N)C(=O)O)cc1OC (stereo not given)"
  Ki: "> 1 µM"
- compound: "NC(=O)[C@@H](Cc1ccc2ccccc2c1)NCc1c[nH]c2ccccc12"
  Ki: "74 µM"
- compound: "N=C(N)NCCC[C@H](NCc1c[nH]c2ccccc12)C(=O)N[C@@H](Cc1c[nH]c2ccccc12)C(N)=O"
  Ki: "> 1000 µM"
- compound: "NC(N)=NCCCNC(=O)[C@@H]1C[C@H](O)CN1Cc1ccc2ccccc2c1"
  Ki: "2.9 µM"
- compound: "N=C(N)NCCC[C@H](NCc1ccc2ccccc2c1)C(=O)N[C@@H](Cc1c[nH]c2ccccc12)C(N)=O"
  Ki: "29 µM"
- compound: "N=C(N)NCCC[C@H](NCc1ccc2ccccc2c1)C(N)=O"
  Ki: "> 1 µM"
- compound: "C=CCOC(=O)[C@H](CCCNC(=N)N)NCc1ccc2ccccc2c1"
  Ki: "5.9 µM"
- compound: "N=C(N)NCCC[C@@H](NCc1c[nH]c2ccccc12)C(N)=O"
  Ki: "> 1 µM"
- compound: "N=C(N)NCCC[C@H](NCC1CCc2ccccc2C1)C(N)=O (stereo not given in full)"
  Ki: "> 1000 µM"

###

Target: Melanocortin receptor 5 (Homo sapiens)
Sequence (P33032 whole entry): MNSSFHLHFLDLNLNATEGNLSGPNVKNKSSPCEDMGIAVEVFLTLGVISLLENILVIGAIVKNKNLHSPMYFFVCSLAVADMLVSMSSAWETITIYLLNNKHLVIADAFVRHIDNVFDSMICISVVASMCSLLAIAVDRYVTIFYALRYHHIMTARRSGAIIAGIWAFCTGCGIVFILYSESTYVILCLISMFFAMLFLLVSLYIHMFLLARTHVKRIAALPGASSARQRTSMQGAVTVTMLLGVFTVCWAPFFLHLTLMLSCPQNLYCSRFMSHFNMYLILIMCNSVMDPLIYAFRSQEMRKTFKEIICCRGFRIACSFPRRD
Test: Binding affinity in competition with [125I]NDP-MSH on recombinant melanocortin 5 receptor
Returns: string. Value is True if measured Ki is below 200 µM, and False if it is greater than or equal to it.

- smiles_representation: "N=C(N)NCCC[C@H](NCc1c[nH]c2ccccc12)C(=O)N[C@@H](Cc1c[nH]c2ccccc12)C(N)=O"
  label_class: "True"
- smiles_representation: "N=C(N)NCCC[C@@H](NCc1ccc2ccccc2c1)C(N)=O"
  label_class: "True"
- smiles_representation: "C=CCOC(=O)[C@H](CCCNC(=N)N)NCc1ccc2ccccc2c1"
  label_class: "True"
- smiles_representation: "NC(=O)[C@H](Cc1ccc2ccccc2c1)NCc1c[nH]c2ccccc12"
  label_class: "True"
- smiles_representation: "NC(N)=NCCCNC(=O)[C@@H]1C[C@H](O)CN1Cc1ccc2ccccc2c1"
  label_class: "False"

###

Target: Melanocortin receptor 3 (Homo sapiens, UniProt P41968)
Sequence (P41968 whole entry): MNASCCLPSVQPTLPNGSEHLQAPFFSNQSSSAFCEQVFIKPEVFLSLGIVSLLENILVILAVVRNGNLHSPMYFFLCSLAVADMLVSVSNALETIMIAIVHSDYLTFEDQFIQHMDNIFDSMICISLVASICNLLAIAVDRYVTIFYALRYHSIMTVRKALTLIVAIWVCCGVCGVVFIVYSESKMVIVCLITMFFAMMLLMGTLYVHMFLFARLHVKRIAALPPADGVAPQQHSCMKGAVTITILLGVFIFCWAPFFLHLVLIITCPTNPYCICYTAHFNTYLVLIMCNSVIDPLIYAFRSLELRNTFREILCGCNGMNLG
Test: Binding affinity in competition with [125I]NDP-MSH on recombinant melanocortin 3 receptor
measurement_kind: Ki

- smiles_representation: "N=C(N)NCCC[C@H](NCc1ccc2ccccc2c1)C(N)=O"
  target_system: "Melanocortin receptor 3 (Homo sapiens, UniProt P41968)"
  result: "> 1000 nM"
- smiles_representation: "N=C(N)NCCC[C@H](NCc1c[nH]c2ccccc12)C(N)=O"
  target_system: "Melanocortin receptor 3 (Homo sapiens, UniProt P41968)"
  result: "> 1000 nM"
- smiles_representation: "NC(=O)[C@H](Cc1c[nH]c2ccccc12)NCc1ccc2ccccc2c1"
  target_system: "Melanocortin receptor 3 (Homo sapiens, UniProt P41968)"
  result: "56000 nM"
- smiles_representation: "COc1ccc(CN[C@H](CCCNC(=N)N)C(=O)O)cc1OC"
  target_system: "Melanocortin receptor 3 (Homo sapiens, UniProt P41968)"
  result: "> 1000 nM"
- smiles_representation: "NC(N)=NCCC[C@@H](NCc1c[nH]c2ccccc12)C(=O)O"
  target_system: "Melanocortin receptor 3 (Homo sapiens, UniProt P41968)"
  result: "> 1000 nM"

###

Molecular target: Melanocyte-stimulating hormone receptor (Homo sapiens, UniProt Q01726)
Sequence (Q01726 whole entry): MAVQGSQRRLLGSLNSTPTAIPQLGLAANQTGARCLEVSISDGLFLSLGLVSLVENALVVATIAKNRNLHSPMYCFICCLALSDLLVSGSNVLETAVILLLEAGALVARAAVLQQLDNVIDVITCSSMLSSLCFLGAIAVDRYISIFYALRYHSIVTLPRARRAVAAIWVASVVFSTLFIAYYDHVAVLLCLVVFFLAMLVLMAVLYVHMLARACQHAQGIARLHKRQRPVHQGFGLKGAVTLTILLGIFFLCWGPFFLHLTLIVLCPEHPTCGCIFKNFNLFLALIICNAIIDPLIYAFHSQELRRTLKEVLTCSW
Assay: Binding affinity in competition with [125I]NDP-MSH on recombinant melanocortin 1 receptor
Known log10(Ki) of a selection of compounds
measurement_kind: log10(Ki) (log10 of the value in µM)

- smiles_representation: "NC(=O)[C@H](Cc1c[nH]c2ccccc12)NCc1ccc2ccccc2c1"
  number: 0.94
- smiles_representation: "N=C(N)NCCCNC(=O)[C@H](CCCN=C(N)N)NCc1ccc2ccccc2c1"
  number: 0.65
- smiles_representation: "NC(=O)[C@H](Cc1ccc2ccccc2c1)NCc1c[nH]c2ccccc12"
  number: 1.41
- smiles_representation: "NC(=O)[C@@H](Cc1c[nH]c2ccccc12)NCc1ccc2ccccc2c1"
  number: 1.18
- smiles_representation: "N=C(N)NCCC[C@H](NCc1ccc2ccccc2c1)C(=O)Nc1ccc2ccccc2c1"
  number: 0.46
- smiles_representation: "N=C(N)NCCC[C@@H](NCc1ccc2ccccc2c1)C(=O)N[C@@H](Cc1c[nH]c2ccccc12)C(N)=O"
  number: 1.51
- smiles_representation: "N=C(N)NCCC[C@H](NCc1ccc2ccccc2c1)C(=O)Nc1cccc2ccccc12"
  number: 0.11
